Reference source: ChEMBL document CHEMBL5331057

- test_protocol: Inhibition of wild type FTase (unknown origin)
- Set-up: species or system Homo sapiens
observed_property: pIC50
The read-out pIC50 is expressed as -log10 of concentration in moles per litre.

Input line: # query: pIC50 of entry O=C(Cc1ccncc1)N1CCN([C@H]2c3ccc(Cl)cc3CCc3cccnc32)CC1
Output line: 6.31

----------
- Tested on: HCT-116
- test_protocol: Antiproliferative activity against human HCT-116 cells assessed as inhibition of cell growth
- Type: functional, cell-based
observed_property: IC50 (nM)
All answers are understood in nM, so give the number only.

Input line: # query: IC50 of entry CC(C)(C)Nc1nc(Nc2ccccc2)nc(-c2ccccc2)n1
Output line: 530
